Test: Pharmacokinetics study in the rat, single oral dose
Type: in vivo
Conditions: Sprague-Dawley (Slc:SD), single oral 100 mg/kg, non-fasting, serum, n=3
quantity: Tmax (h)
Number only, in h; omit the unit.

What Tmax value was documented for this compound, O=C(NCCCOc1ccc2[nH]c(=O)ccc2c1)N(C1CC1)[C@@H]1CCCC[C@H]1O ?
1

---

Experiment: Pharmacokinetics study in the rat, single oral dose
Assay type: in vivo
Details: Sprague-Dawley (Slc:SD), single oral 30 mg/kg, non-fasting, serum, n=3
quantity: Cmax

What Cmax value was documented for this molecule, O=C(NCCCOc1ccc2[nH]c(=O)ccc2c1)N(C1CC1)[C@@H]1CCCC[C@H]1O [Compound 1] ?
4.73 µM

---

Assay: Pharmacokinetics study in the rat, single oral dose
Type: in vivo
Conditions: Sprague-Dawley, single oral 10 mg/kg, non-fasting, serum, n=3
quantity: AUC(0-inf) (µM·h)
Number only, in µM·h; omit the unit.

What AUC(0-inf) value was documented for this molecule, O=C(NCCCOc1ccc2[nH]c(=O)ccc2c1)N(C1CC1)[C@@H]1CCCC[C@H]1O ?
2.55

---

Assay: Pharmacokinetics study in the rat, single oral dose
Type: in vivo
Settings: Sprague-Dawley (Slc:SD), single oral 100 mg/kg, non-fasting, serum, n=3
quantity: AUC(0-t) (µM·h)
Number only, in µM·h; omit the unit.

What AUC(0-t) value was documented for this molecule, O=C(NCCCOc1ccc2[nH]c(=O)ccc2c1)N(C1CC1)[C@@H]1CCCC[C@H]1O [Compound 1] ?
47.1

---

Test: Pharmacokinetics study in the rat, single oral dose
Assay type: in vivo
Details: Sprague-Dawley (Slc:SD), single oral 3 mg/kg, non-fasting, serum, n=3
quantity: AUC(0-inf) (µM·h)
Number only, in µM·h; omit the unit.

What AUC(0-inf) value was documented for this molecule, O=C(NCCCOc1ccc2[nH]c(=O)ccc2c1)N(C1CC1)[C@@H]1CCCC[C@H]1O ?
1.33

---

Assay: Pharmacokinetics study in the rat, single oral dose
Type: in vivo
Details: Sprague-Dawley (Slc:SD), single oral 3 mg/kg, non-fasting, serum, n=3
quantity: half-life (h)
Number only, in h; omit the unit.

What half-life value was documented for this compound, O=C(NCCCOc1ccc2[nH]c(=O)ccc2c1)N(C1CC1)[C@@H]1CCCC[C@H]1O [Compound 1] ?
2.64

---

Assay: Pharmacokinetics study in the rat, single oral dose
Assay type: in vivo
Settings: Sprague-Dawley, single oral 100 mg/kg, non-fasting, serum, n=3
quantity: Cmax (µM)
Number only, in µM; omit the unit.

What Cmax value was documented for this compound, O=C(NCCCOc1ccc2[nH]c(=O)ccc2c1)N(C1CC1)[C@@H]1CCCC[C@H]1O [Compound 1] ?
9.76

---

Assay: Pharmacokinetics study in the rat, single oral dose
Format: in vivo
Settings: Sprague-Dawley, single oral 30 mg/kg, non-fasting, serum, n=3
quantity: half-life (h)
Number only, in h; omit the unit.

What half-life value was documented for this molecule, O=C(NCCCOc1ccc2[nH]c(=O)ccc2c1)N(C1CC1)[C@@H]1CCCC[C@H]1O [Compound 1] ?
1.61

---

Assay: Pharmacokinetics study in the rat, single oral dose
Format: in vivo
Conditions: Sprague-Dawley (Slc:SD), single oral 100 mg/kg, non-fasting, serum, n=3
quantity: AUC(0-inf) (µM·h)
Number only, in µM·h; omit the unit.

What AUC(0-inf) value was documented for this molecule, O=C(NCCCOc1ccc2[nH]c(=O)ccc2c1)N(C1CC1)[C@@H]1CCCC[C@H]1O ?
48.2
